TGT: T1, human IL-36R on cells (human, UniProt Q9HB29 20-575)
T1 sequence (looked up): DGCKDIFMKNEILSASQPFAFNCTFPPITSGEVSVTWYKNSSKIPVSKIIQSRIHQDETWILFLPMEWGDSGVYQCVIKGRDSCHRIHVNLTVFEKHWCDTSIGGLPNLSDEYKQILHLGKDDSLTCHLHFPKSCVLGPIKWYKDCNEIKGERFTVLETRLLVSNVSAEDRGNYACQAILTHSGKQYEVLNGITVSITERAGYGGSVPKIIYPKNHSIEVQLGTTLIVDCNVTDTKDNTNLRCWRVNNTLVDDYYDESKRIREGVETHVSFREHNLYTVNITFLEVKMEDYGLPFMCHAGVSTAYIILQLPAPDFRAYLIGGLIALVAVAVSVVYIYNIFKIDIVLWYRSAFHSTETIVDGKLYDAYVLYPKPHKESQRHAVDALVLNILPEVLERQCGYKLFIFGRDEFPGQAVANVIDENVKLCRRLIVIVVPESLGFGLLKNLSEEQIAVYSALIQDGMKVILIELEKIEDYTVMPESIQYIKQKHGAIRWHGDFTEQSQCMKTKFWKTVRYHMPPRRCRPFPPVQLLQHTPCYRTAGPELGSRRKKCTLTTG
TEST_PROTOCOL: cell-based or functional assay
VALUE_KIND: IC90, IL-8 release, human primary keratinocytes (NHK), trun-IL-36a (nM)
Numbers only, in nM.

Here are 3 binders together with their reported answers.
BINDER	UNIT_LABEL	ASSAY_VALUE
antibody 33D10 (antibody, V domains shown, Mouse monoclonal from hybridoma; also called 33D10B12; Mouse 33D10) VH: QVQLQQSGTELLKPGASVKLSCKASGNTVTSYWMHWVKQRPGQGLEWIGEILPSTGRTNYNENFKGKAMLTVDKSSSTAYMQLSSLASEDSAVYYCTIVYFGNPWFAYWGQGTLVTVSA VL: QIVLTQSPAIMSASLGERVTMTCTASSSVSSSYLHWYQKKPGSSPKLWVYSTSNLASGVPVRFSGSGSGTSYSLTISSMEAEDAATYYCHQHHRSPVTFGSGTKLEMK	nM	1.5
antibody 78C8 (antibody, V domains shown, Mouse monoclonal from hybridoma; also called 78C8D1; Mouse 78C8) VH: QVQLKESGPVLVAPSQSLSITCTVSGFSLTKFGVHWIRQTPGKGLEWLGVIWAGGPTNYNSALMSRLTISKDISQSQVFLRIDSLQTDDTAMYYCAKQIYYSTLVDYWGQGTSVTVSS VL: DVLLTQTPLSLPVSLGDQASISCRSSQNIVHSNGNTYLQWYLQKPGQSPKLLIYKVSNRFSGVPDRFSGSGSGTDFTLKISRVEAEDLGVYYCFQGSHVPFTFGAGTKLELK	nM	19.3
antibody 81B4 (antibody, V domains shown, Mouse monoclonal from hybridoma; also called 81B4E11; Mouse 81B4) VH: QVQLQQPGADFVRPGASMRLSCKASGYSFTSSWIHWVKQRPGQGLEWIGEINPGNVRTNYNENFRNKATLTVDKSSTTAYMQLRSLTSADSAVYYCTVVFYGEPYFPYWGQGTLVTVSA VL: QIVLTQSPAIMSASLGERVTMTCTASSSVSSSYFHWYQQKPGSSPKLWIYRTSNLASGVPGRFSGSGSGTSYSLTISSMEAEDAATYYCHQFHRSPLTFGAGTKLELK	nM	0.7

Give the reported value of IC90, IL-8 release, human primary keratinocytes (NHK), trun-IL-36a for this record: antibody 73F6 (antibody, V domains shown, Mouse monoclonal from hybridoma; also called 73F6F8; Mouse 73F6) VH: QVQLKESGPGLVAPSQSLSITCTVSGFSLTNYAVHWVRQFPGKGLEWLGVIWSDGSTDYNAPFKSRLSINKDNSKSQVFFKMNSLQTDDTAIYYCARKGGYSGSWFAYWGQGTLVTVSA VL: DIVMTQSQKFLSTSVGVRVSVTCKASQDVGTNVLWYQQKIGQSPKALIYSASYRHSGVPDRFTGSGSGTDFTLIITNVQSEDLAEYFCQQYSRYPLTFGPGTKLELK
17.8
